tested on: JNK1 protein; assay: Western assay of JNK1 protein levels in A549 cells; assay type: cell-based, human; settings: t = 48 h, 300 nM for 20 hours then 200 nM for 4 hours
e = 2'-O-(2-methoxyethyl) (MOE); [5mC] = 5-methylcytosine; d = 2'-deoxy (DNA)
I'd appreciate it if you could supply Protein % Control values for the items below.
Could you kindly put the unit after your number?

What value of Protein % Control has been recorded for this entry: 15348 (antisense CTCTCTGTAGGCCCGCTTGG; sugars from the 5' end e11 d9, [5mC] at 1, 3, 5, all phosphorothioate, methylation of C not given here) [compound 15348]
58.3%

What value of Protein % Control has been recorded for this entry: 15349 (antisense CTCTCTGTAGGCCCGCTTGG; sugars from the 5' end d9 e11, [5mC] at 12, 13, 14, 16, all phosphorothioate, methylation of C not given here) [compound 15349]
69.5%

What value of Protein % Control has been recorded for this entry: 12539 (antisense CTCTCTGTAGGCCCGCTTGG; DNA, all phosphorothioate, methylation of C not given here) [compound 12539]
44.3%

Data credit: patent US20040029823A1
